System: KGF secretion by human dermal papilla cells
assayRemarks: KGF secretion by human dermal papilla cells, ELISA
Format: cell-based
conditionContext: % control vs untreated control cells, overnight, typically 0.1, 1, 10 μg/ml
observedProperty: Average % KGF Secretion (%)
Record the value in %, omitting the unit from your answer.

Example entries begin here.
O=c1cc(-c2ccc(O)c(O)c2)oc2cc(O)cc(O)c12 [Luteolin] ... 147.8
CC1=C(/C=C/C(C)=C/C=C/C(C)=C/C=C/C=C(C)/C=C/C=C(C)/C=C/C2=C(C)C(=O)[C@@H](O)CC2(C)C)C(C)(C)C[C@H](O)C1=O [Astaxanthin] ... 327.1
O=c1cc(-c2ccc(O)c(-c3c(O)cc(O)c4c(=O)cc(-c5ccc(O)cc5)oc34)c2)oc2cc(O)cc(O)c12 [Amentoflavone] ... 209.5
O=C(CCCCc1ccc2c(c1)OCO2)N1CCCCC1 [Cosmoperine ™, tetrahydropiperine] ... 75.1

Okay, next one:
C[C@@H]1O[C@@H](O[C@H]2C(=O)c3c(O)cc(O)cc3O[C@@H]2c2ccc(O)c(O)c2)[C@H](O)[C@H](O)[C@H]1O [Astilbin] has a reported Average % KGF Secretion of 85.4

* * *

Tested on: VEGF secretion by human dermal papilla cells
assayRemarks: VEGF secretion by human dermal papilla cells, ELISA
Type: cell-based
conditionContext: % control vs untreated control cells, overnight, typically 0.1, 1, 10 μg/ml
Procedure: The ability of each of the ingredients in the compositions of the present invention to stimulate or increase secretion of growth factors, such as VEGF and KGF was measured. […] For example, to measure the ability of a compound to stimulate secretion of a growth factor, 100 mg of each test sample in powder form was measured. […] The effect of each test sample ingredient may be measured using human dermal papilla cells, which may be purchased from Cell Applications (San Diego, Calif.). […]
observedProperty: Average % VEGF Secretion (%)
Reply numerically in %, unit not repeated.

CC1=C(/C=C/C(C)=C/C=C/C(C)=C/C=C/C=C(C)/C=C/C=C(C)/C=C/C2=C(C)C(=O)[C@@H](O)CC2(C)C)C(C)(C)C[C@H](O)C1=O ... 249.4
C[C@@H]1O[C@@H](O[C@H]2C(=O)c3c(O)cc(O)cc3O[C@@H]2c2ccc(O)c(O)c2)[C@H](O)[C@H](O)[C@H]1O ... 122.9
O=C(CCCCc1ccc2c(c1)OCO2)N1CCCCC1 [Cosmoperine ™, tetrahydropiperine] ... 172.5
O=c1cc(-c2ccc(O)c(-c3c(O)cc(O)c4c(=O)cc(-c5ccc(O)cc5)oc34)c2)oc2cc(O)cc(O)c12 ... 186.2

compound `O=c1cc(-c2ccc(O)c(O)c2)oc2cc(O)cc(O)c12` , Average % VEGF Secretion observed: 123.2
